Documented log10(concentration) across a set of molecules
Test system: Plasma
Test: Plasma concentration in OF1 mouse at 100 mg/kg, po
Type: ADME, organism-based
Design: dose 100 mg/kg, route oral
Details: in vivo
ASSAY_READOUT: log10(concentration) (log10 of the value in nM)

INSERT INTO results (smi, assay_readout, result) VALUES
  ('CN1CC2(CNC(=O)c3c2[nH]c2c3CCc3cnc(-c4ccc(F)nc4)cc3-2)C1', 'log10(concentration)', 2.78),
  ('COc1ccc(-c2cc3c(cn2)CCc2c-3[nH]c3c2C(=O)NCC32CC2)cc1', 'log10(concentration)', 2.78),
  ('O=C1NCC2(CC2)c2[nH]c3c(c21)CCc1cnc(-c2ccc(F)nc2)cc1-3', 'log10(concentration)', 3.28),
  ('CN1CC2(CNC(=O)c3c2[nH]c2c3CCc3cnc(-c4cccc(F)c4)cc3-2)C1', 'log10(concentration)', 3.00),
  ('O=C1NC2(CC2)Cc2[nH]c3c(c21)CCc1cnc(-c2ccc(F)nc2)cc1-3', 'log10(concentration)', 4.48),
  ('O=C1NC2(CC2)Cc2[nH]c3c(c21)CCc1cnc(-c2cccc(F)c2)cc1-3', 'log10(concentration)', 4.18),
  ('COc1ccc(-c2cc3c(cn2)CCc2c-3[nH]c3c2C(=O)NC2(CC2)C3)cc1', 'log10(concentration)', 4.40),
  ('CN1CC2(CNC(=O)c3c2[nH]c2c3CCc3cnc(-c4ccccc4F)cc3-2)C1', 'log10(concentration)', 3.78),
  ('COc1ccc(-c2cc3c(cn2)CCc2c-3[nH]c3c2C(=O)NCC32CN(C)C2)cc1', 'log10(concentration)', 2.00);

###

Biological target: MAP kinase-activated protein kinase 2 (Homo sapiens)
ASSAY_READOUT: IC50 (nM)

INSERT INTO measurements (smi, display_unit, result) VALUES
  ('COCCOc1cncc(-c2cc3c(ccc4c5c([nH]c43)CCNC5=O)cn2)c1', 'nM', 1500);

###

Test: Plasma concentration in collagen-induced arthritic DBA/1 mouse model at 100 mg/kg, po BID measured 2 hrs post last dose
Type: ADME, organism-based
Set-up: dose 100 mg/kg, route oral
ASSAY_READOUT: concentration at 2 h

INSERT INTO results (smi, assay_readout, result) VALUES
  ('O=C1NC2(CC2)Cc2[nH]c3c(c21)CCc1cnc(-c2ccc(F)nc2)cc1-3', 'concentration at 2 h', '16 µM');

###

Experiment: Plasma concentration in antigen-induced arthritic rat model at 100 mg/kg, po BID measured 2 hrs post last dose
Assay type: ADME, organism-based
Design: dose 100 mg/kg, route oral
ASSAY_READOUT: concentration at 2 h (µM)

INSERT INTO results (smi, display_unit, result) VALUES
  ('O=C1NC2(CC2)Cc2[nH]c3c(c21)CCc1cnc(-c2ccc(F)nc2)cc1-3', 'µM', 11.7);

###

Assay: Thermodynamic solubility of the compound at pH 6.8
Format: physicochemical
Conditions: buffer, read-out: Therm_solubility
ASSAY_READOUT: solubility thermodynamic (µM)

INSERT INTO assay_data (smi, assay_readout, display_unit, bound_type, result) VALUES
  ('COc1ccc(-c2cc3c(cn2)CCc2c-3[nH]c3c2C(=O)NCC32CN(C)C2)cc1', 'solubility thermodynamic', 'µM', '=', 40),
  ('COc1ccc(-c2cc3c(cn2)CCc2c-3[nH]c3c2C(=O)NC2(CNC2)C3)cc1', 'solubility thermodynamic', 'µM', '=', 32),
  ('CN1CC2(CNC(=O)c3c2[nH]c2c3Cc3cnc(-c4ccccc4F)cc3-2)C1', 'solubility thermodynamic', 'µM', '=', 69),
  ('O=C1NC2(CC2)Cc2[nH]c3c(c21)CCc1cnc(-c2ccc(F)nc2)nc1-3', 'solubility thermodynamic', 'µM', '<', 4),
  ('CCN1CC2(CNC(=O)c3c2[nH]c2c3CCc3cnc(-c4ccccc4F)cc3-2)C1', 'solubility thermodynamic', 'µM', '=', 950),
  ('COc1ccc(-c2cc3c(cn2)CCc2c-3[nH]c3c2C(=O)NC2(CC2)C3)cc1', 'solubility thermodynamic', 'µM', '<', 4),
  ('COc1ccc(-c2cc3c(cn2)CCc2c-3[nH]c3c2C(=O)NCC32CC2)cc1', 'solubility thermodynamic', 'µM', '<', 4),
  ('CN1CC2(CNC(=O)c3c2[nH]c2c3CCc3cnc(-c4ccc(F)nc4)nc3-2)C1', 'solubility thermodynamic', 'µM', '=', 173),
  ('O=C1NCC2(CC2)c2[nH]c3c(c21)CCc1cnc(-c2cccc(F)c2)cc1-3', 'solubility thermodynamic', 'µM', '<', 4),
  ('COCCOc1cncc(-c2cc3c(ccc4c5c([nH]c43)CCNC5=O)cn2)c1', 'solubility thermodynamic', 'µM', '<', 4),
  ('COc1ccc(-c2cc3c(cn2)CCc2c-3[nH]c3c2C(=O)NCC3)cc1', 'solubility thermodynamic', 'µM', '<', 4),
  ('O=C1NCCc2[nH]c3c(c21)CCc1cnc(-c2cccc(F)c2)cc1-3', 'solubility thermodynamic', 'µM', '<', 4),
  ('COCCOc1cncc(-c2cc3c(cn2)CCCc2c-3[nH]c3c2C(=O)NCC3)c1', 'solubility thermodynamic', 'µM', '=', 21),
  ('COc1ccc(-c2ncc3c(n2)-c2[nH]c4c(c2CC3)C(=O)NCC42CC2)cc1', 'solubility thermodynamic', 'µM', '<', 4),
  ('CN1CC2(CNC(=O)c3c4c(n(C)c32)-c2cc(-c3ccccc3F)ncc2CC4)C1', 'solubility thermodynamic', 'µM', '=', 41),
  ('O=C1NC2(CC2)Cc2[nH]c3c(c21)CCc1cnc(-c2ccccc2F)nc1-3', 'solubility thermodynamic', 'µM', '=', 8),
  ('O=C1NC2(CC2)Cc2[nH]c3c(c21)CCc1cnc(-c2cccc(F)c2)cc1-3', 'solubility thermodynamic', 'µM', '=', 5),
  ('COCCOc1cncc(-c2cc3c(cn2)CCc2c-3[nH]c3c2C(=O)NCC3)c1', 'solubility thermodynamic', 'µM', '=', 8),
  ('O=C1NC2(CC2)Cc2[nH]c3c(c21)CCc1cnc(-c2ccc(OCCN4CCOCC4)cc2)nc1-3', 'solubility thermodynamic', 'µM', '<', 4),
  ('CN1CC2(CNC(=O)c3c2[nH]c2c3CCc3cnc(-c4ccc(F)nc4)cc3-2)C1', 'solubility thermodynamic', 'µM', '=', 47);

###

Test: Clearance in rat at 1 mg/kg, po
Type: ADME, organism-based
Design: dose 1 mg/kg, route oral
Settings: in vivo
ASSAY_READOUT: CL/F (mL/min/kg)

INSERT INTO measurements (smi, result) VALUES
  ('O=C1NC2(CC2)Cc2[nH]c3c(c21)CCc1cnc(-c2ccc(F)nc2)cc1-3', 12);

###

Target: MAP kinase-activated protein kinase 2 (Homo sapiens, UniProt P49137)
Sequence (P49137 whole entry): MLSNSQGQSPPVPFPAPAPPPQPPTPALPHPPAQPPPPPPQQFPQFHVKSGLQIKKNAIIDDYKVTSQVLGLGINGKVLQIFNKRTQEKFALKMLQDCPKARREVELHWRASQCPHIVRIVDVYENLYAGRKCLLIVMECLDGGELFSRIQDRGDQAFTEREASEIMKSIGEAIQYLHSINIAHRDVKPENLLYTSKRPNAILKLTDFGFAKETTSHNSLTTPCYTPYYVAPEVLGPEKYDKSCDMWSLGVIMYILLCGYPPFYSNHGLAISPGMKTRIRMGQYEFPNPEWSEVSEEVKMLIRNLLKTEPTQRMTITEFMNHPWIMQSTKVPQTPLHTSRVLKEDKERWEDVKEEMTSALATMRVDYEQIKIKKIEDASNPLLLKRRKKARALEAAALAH
ASSAY_READOUT: IC50

INSERT INTO results (smi, result) VALUES
  ('COCCOc1cncc(-c2cc3c(ccc4c5c([nH]c43)CCNC5=O)cn2)c1', '10 nM');

###

Assay: Plasma concentration in antigen-induced arthritic rat model at 100 mg/kg, po BID measured 6 hrs post last dose
Type: ADME, organism-based
Parameters: dose 100 mg/kg, route oral
ASSAY_READOUT: concentration at 6 h (µM)

INSERT INTO results (smi, assay_readout, result) VALUES
  ('O=C1NC2(CC2)Cc2[nH]c3c(c21)CCc1cnc(-c2ccc(F)nc2)cc1-3', 'concentration at 6 h', 9.8);

###

Experiment: Cmax in rat at 1 mg/kg, po
Format: ADME, organism-based
Design: dose 1 mg/kg, route oral
Details: in vivo
ASSAY_READOUT: Cmax (nM)

INSERT INTO assay_data (smi, display_unit, result) VALUES
  ('O=C1NC2(CC2)Cc2[nH]c3c(c21)CCc1cnc(-c2ccc(F)nc2)cc1-3', 'nM', 105);

###

Documented solubility thermodynamic across a set of molecules
Test: Thermodynamic solubility of the compound at pH 6.8
Type: physicochemical
Settings: buffer, read-out: Therm_solubility
ASSAY_READOUT: solubility thermodynamic (µM)

INSERT INTO measurements (smi, bound_type, result) VALUES
  ('O=C1NCCc2[nH]c3c(c21)CCc1cnc(-c2ccccc2F)cc1-3', '=', 11),
  ('O=C1NCCc2[nH]c(-c3ccnc(-c4ccccc4F)c3)cc21', '=', 337),
  ('O=C1NCC2(CNC2)c2oc3c(c21)CCc1cnc(-c2cccc(F)c2)cc1-3', '=', 51),
  ('COc1ccc(-c2ncc3c(n2)-c2[nH]c4c(c2CC3)C(=O)NCC4)cc1', '<', 5),
  ('CN1CC2(CNC(=O)c3c2[nH]c2c3CCc3cnc(-c4ccccc4F)nc3-2)C1', '=', 373),
  ('COc1ccc(-c2ncc3c(n2)-c2[nH]c4c(c2CC3)C(=O)NCC42CN(C)C2)cc1', '=', 43),
  ('CN1CCC2(CC1)CNC(=O)c1c2[nH]c2c1CCc1cnc(-c3ccccc3F)cc1-2', '>', 1000),
  ('O=C1NCC2(CNC2)c2[nH]c3c(c21)CCc1cnc(-c2ccccc2F)cc1-3', '=', 337),
  ('CN1CC2(CNC(=O)c3c2[nH]c2c3CCc3cnc(-c4cccc(F)c4)cc3-2)C1', '=', 10),
  ('O=C1NCC2(CC2)c2[nH]c3c(c21)CCc1cnc(-c2ccc(F)nc2)cc1-3', '<', 4),
  ('O=C1NC2(CC2)Cc2[nH]c3c(c21)CCc1cnc(-c2ccccc2F)cc1-3', '=', 10),
  ('CN1CC2(CNC(=O)c3c2[nH]c2c3CCc3cnc(-c4ccccc4F)cc3-2)C1', '>', 1000),
  ('CC(=O)N1CC2(CNC(=O)c3c2[nH]c2c3CCc3cnc(-c4ccccc4F)cc3-2)C1', '=', 24),
  ('COc1ccc(-c2cc3c(cn2)CCc2c-3[nH]c3c2C(=O)NC2(C3)CN(C)C2)cc1', '<', 4),
  ('O=C1NC2(CC2)Cc2[nH]c3c(c21)CCc1cnc(-c2ccc(OCCN4CCOCC4)cc2)cc1-3', '<', 4),
  ('Cn1c2c(c3c1C1(CNC1)CNC3=O)CCc1cnc(-c3ccccc3F)cc1-2', '=', 54),
  ('O=C1NC2(CC2)Cc2[nH]c3c(c21)CCc1cnc(-c2ccc(F)nc2)cc1-3', '=', 9),
  ('COc1ccc(-c2ncc3c(n2)-c2[nH]c4c(c2CC3)C(=O)NC2(CC2)C4)cc1', '<', 4);
